Tested on: HT-29 cells
assaySummary: Cell necrosis inhibitory activity under necroptosis-inducing conditions (TNF-α, Z-VAD-FMK, LCL161) in HT-29 cells, Cell Titer-Glo
Assay type: cell-based
statedConditions: Homo sapiens, 100 ng/mL TNF-α + 25 μM Z-VAD-FMK + Smac mimetic LCL161, 24 hours, cell viability
pEC50: −log10 of the molar value.
Threshold 9. pEC50 below it: MET. pEC50 at it or above: NOT MET.

INSERT INTO assay_data (molecule, classification) VALUES
  ('Nc1nc2ccc(-c3ccc(F)c(NC(=O)N4OCC[C@H]4c4ccccc4)c3F)cc2s1 [Example 132]', 'MET'),
  ('COc1ncc(-c2ccc3nnn(C(C)C)c3c2)cc1NC(=O)N1OCC[C@H]1c1ccccc1 [Example 12]', 'MET'),
  ('Cc1ncc(-c2ccc3nc(N)nn3c2)cc1NC(=O)N1OCC[C@H]1c1cccc(C#N)c1 [Example 46]', 'MET'),
  ('Cc1ccc(-c2ccc3nc(N)c(C(=O)[C@@H]4C[C@@H]4F)n3c2)cc1NC(=O)N1OCC[C@H]1c1ccccc1 [Example 135]', 'NOT MET'),
  ('Cc1ncc(-c2ccn3nc(NC(=O)C4CC4)nc3c2)cc1NC(=O)N1OCC[C@H]1c1ccccc1 [Example 48]', 'NOT MET');
